Source of measurements: ChEMBL document CHEMBL3988442

Would you kindly list Percent Effect for each of these molecules?
Tested on: Wolbachia pipientis
Assay method text: Anti-Wolbachia Cell-Based Screen
Type: functional
Parameters: scale not given: in the data most compounds retested in dose-response had high values
Condition description: 5 µM
Among all 48,000 compounds or so, about 13,000 (27%) showed an effect of 50% or more. The list shows a part of the results.
// return numeric value only (unit: %, not printed)

Ask: Look up Percent Effect for this molecule: COc1ccc(C(=O)N2CC(=O)N(CC3CC3)CC(O)C2)cc1 (stereo not drawn)
Result: 115.7

Ask: Look up Percent Effect for this molecule: Cc1nccn1CCC1CCCCN1Cc1ccc(N(C)C)nc1 (stereo not drawn)
Result: 13.8

Ask: Look up Percent Effect for this molecule: CSc1ccc(C(=O)N2CCCC(Nc3ccc(F)cc3)C2)cc1 (stereo not drawn)
Result: -32.55

Ask: Look up Percent Effect for this molecule: CN(c1ncccc1CNC(=O)c1csnn1)C1CCCCC1
Result: 20.86

Ask: Look up Percent Effect for this molecule: CSc1ccc(C(=O)N2C[C@H]3CC[C@@H]2CN(Cc2cccnc2)C3)cc1
Result: 37.83

Ask: Look up Percent Effect for this molecule: NC(=O)NCC(=O)N1C[C@H]2CC[C@@H]1CN(C1Cc3ccccc3C1)C2
Result: -1.297

Ask: Look up Percent Effect for this molecule: CCc1ncc(C(=O)N(C)CCc2nc3cc(OC)ccc3[nH]2)cn1
Result: 4.765

Ask: Look up Percent Effect for this molecule: Cc1ccccc1CC(=O)N(C)C1CCCC1
Result: -4.156

Ask: Look up Percent Effect for this molecule: O=C(CCn1cncn1)NC1(c2cccc(Br)c2)CCC1
Result: 14.53

Ask: Look up Percent Effect for this molecule: COc1ccc(CCNc2cc(-c3nc(C)no3)ccn2)cc1OC
Result: -4.716

Ask: Look up Percent Effect for this molecule: c1cc(-c2cc(C3CCN(Cc4cncnc4)C3)ccn2)ccn1 (stereo not drawn)
Result: -7.458

Ask: Look up Percent Effect for this molecule: Cc1oc(C(C)C)cc1C(=O)N1C[C@H]2CC[C@@H]1CN(C(=O)N(C)C)C2
Result: -18.45

Ask: Look up Percent Effect for this molecule: COCCN1CC(O)CN(C(=O)c2ccc(SC)cc2)CC1=O (stereo not drawn)
Result: 110.7

Ask: Look up Percent Effect for this molecule: COc1ccc2cc(C(=O)N3CC[C@H](CO)[C@H](O)C3)n(C)c2c1
Result: -6.471

Ask: Look up Percent Effect for this molecule: CCc1nc(C2CCCN2C(=O)C2=COCC2)no1 (stereo not drawn)
Result: -4.333

Ask: Look up Percent Effect for this molecule: COCCCC1(C(=O)O)CCCN(Cc2cc3c(cc2C)OCCO3)C1 (stereo not drawn)
Result: -2.058

Ask: Look up Percent Effect for this molecule: CCc1cc(C(=O)N2CCCC2c2nc(C)c(F)c(O)n2)on1 (stereo not drawn)
Result: -4.896

Ask: Look up Percent Effect for this molecule: CC(C)c1nc(CN2CCCCC2)cs1
Result: -7.213

Ask: Look up Percent Effect for this molecule: CCc1nc(C2CCCN2C(=O)c2ccc3c(c2)nc(C)n3C)no1 (stereo not drawn)
Result: 0.7608

Ask: Look up Percent Effect for this molecule: CC(C)CN1CC(c2nc(-c3cccc(F)c3)c[nH]2)CC1=O (stereo not drawn)
Result: -7.334

Ask: Look up Percent Effect for this molecule: CCc1cc(C(=O)N2CCCC2c2nc(C)c(CC)c(O)n2)on1 (stereo not drawn)
Result: 110.9

Ask: Look up Percent Effect for this molecule: COCCN1C[C@H]2CC[C@@H]1CN(C(=O)c1ccc(Cl)cc1)C2
Result: 3.109

Ask: Look up Percent Effect for this molecule: NC(=O)CN1CCN(CC2CC2)c2ccccc21
Result: -6.284

Ask: Look up Percent Effect for this molecule: CCc1c(C)nc(C2CCCN2C(=O)c2cc(C)no2)nc1O (stereo not drawn)
Result: 101.8

Ask: Look up Percent Effect for this molecule: Cn1c(Cn2cccn2)nnc1C1CCCN(c2ccncc2)C1 (stereo not drawn)
Result: -11.32

Ask: Look up Percent Effect for this molecule: Cc1ncc(-c2nc3cc(S(=O)(=O)N4CCCC4)ccc3n2C)cn1
Result: -2.365

Ask: Look up Percent Effect for this molecule: CSCC(=O)N1CCCC(n2ccnc2C(C)C)C1 (stereo not drawn)
Result: -4.829

Ask: Look up Percent Effect for this molecule: FC(F)(F)c1cc(C2CCCN(Cc3ccncc3)C2)n[nH]1 (stereo not drawn)
Result: -5.824

Ask: Look up Percent Effect for this molecule: Cc1nn2cccnc2c1C(=O)N1CCCC(Nc2ccccc2)C1 (stereo not drawn)
Result: -8.048

Ask: Look up Percent Effect for this molecule: COCCC(=O)N1CCN(CC2CC2)c2ccccc21
Result: -5.529

Ask: Look up Percent Effect for this molecule: CCN1CCN(C(=O)c2csnn2)c2ccccc21
Result: 3.89

Ask: Look up Percent Effect for this molecule: Cn1cc(CNCC2(N3CCCCC3)Cc3ccccc3C2)cn1
Result: -0.5934

Ask: Look up Percent Effect for this molecule: CCCc1cncnc1N1CCC(NCc2ccc(O)cc2)CC1
Result: -4.089

Ask: Look up Percent Effect for this molecule: O=C(NC1CCN(CC2CC2)C1)c1ccc(N2CCC(O)CC2)cc1 (stereo not drawn)
Result: -2.601

Ask: Look up Percent Effect for this molecule: c1cncc(CN2CCC(c3csc4nccn34)CC2)c1
Result: 140.6

Ask: Look up Percent Effect for this molecule: Cc1nn(C)c(N2CCOCC2)c1CNC1CCc2ccccc2C1 (stereo not drawn)
Result: -5.455

Ask: Look up Percent Effect for this molecule: Fc1ccc(OCc2nnc([C@H]3CCN(Cc4ccncc4)C3)o2)cc1
Result: 12.6

Ask: Look up Percent Effect for this molecule: CSc1ccc(C(=O)N2CC(=O)N(CC3CC3)CC(O)C2)cc1 (stereo not drawn)
Result: 119.8
